# Assayed Target: HLA-A*02:01 (human)
# Assay Notes: REVEAL MHC-peptide binding assay, recombinant HLA
# Test Conditions: remark: other sources report otherwise
Readout Name: In Vitro Score (% of positive control peptide)

WVKRGSKKL | 3
AFIIFWVAR | 2.2
IIFWVKRGR | 1.7
IFWVARGRK | 1

1 = WVKRGHKKL
2 = IFWVKRGLK
Larger number for In Vitro Score (% of positive control peptide): 1 , or 2 ? State the label of the item chosen.
1
